- Measurement target: T1, human NKG2A on cells (human, UniProt P26715 1-233)
- T1 construct: also called hNKG2A; CHO-hNKG2A
- T1 sequence (P26715 whole entry): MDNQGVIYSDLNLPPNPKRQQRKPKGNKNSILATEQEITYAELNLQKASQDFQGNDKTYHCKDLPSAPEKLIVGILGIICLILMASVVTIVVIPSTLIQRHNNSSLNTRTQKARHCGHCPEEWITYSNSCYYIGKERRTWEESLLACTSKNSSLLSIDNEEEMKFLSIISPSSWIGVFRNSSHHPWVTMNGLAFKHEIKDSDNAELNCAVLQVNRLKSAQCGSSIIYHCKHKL
- Method: flow cytometry, blocking of labelled HLA-E pentamer on CHO cells expressing human NKG2A
Consider the following binders and their measured IC50 readings.
Measure: IC50 (nM)

Binder | Measure | Readout value
NKG2A.10 antibody (antibody, IgG1, V domains shown, IgG1.3f; also called 13F3.A4 VH-I107T, VK-N30Q) VH: EVQLVESGGGLVKPGGSLRLSCAASGFTFSSHSMNWVRQAPGKGLEWVSAISSSSSYIYYADSVKGRFTISRDNAKNSLYLQMNSLRAEDTAVYYCAREEWGLPFDYWGQGTLVTVSS VL: AIQLTQSPSSLSASVGDRVTITCRASQGIQSALAWYQQKPGKAPKLLIYDASSLKSGVPSRFSGSGSGTDFTLTISSLQPEDFATYYCQQFNSYPLTFGQGTRLEIKR | IC50 | 0.05
NKG2A.14 antibody (antibody, human IgG1, kappa, V domains shown, IgG1.3f; also called 13F3.A4 VK-N30Q) VH: EVQLVESGGGLVKPGGSLRLSCAASGFTFSSHSMNWVRQAPGKGLEWVSAISSSSSYIYYADSVKGRFTISRDNAKNSLYLQMNSLRAEDTAVYYCAREEWGLPFDYWGQGILVTVSS VL: AIQLTQSPSSLSASVGDRVTITCRASQGIQSALAWYQQKPGKAPKLLIYDASSLKSGVPSRFSGSGSGTDFTLTISSLQPEDFATYYCQQFNSYPLTFGQGTRLEIKR | IC50 | 0.2
